assay.target: human GLP-1 receptor (human, UniProt P43220 24-463)
Sequence (P43220 24-463): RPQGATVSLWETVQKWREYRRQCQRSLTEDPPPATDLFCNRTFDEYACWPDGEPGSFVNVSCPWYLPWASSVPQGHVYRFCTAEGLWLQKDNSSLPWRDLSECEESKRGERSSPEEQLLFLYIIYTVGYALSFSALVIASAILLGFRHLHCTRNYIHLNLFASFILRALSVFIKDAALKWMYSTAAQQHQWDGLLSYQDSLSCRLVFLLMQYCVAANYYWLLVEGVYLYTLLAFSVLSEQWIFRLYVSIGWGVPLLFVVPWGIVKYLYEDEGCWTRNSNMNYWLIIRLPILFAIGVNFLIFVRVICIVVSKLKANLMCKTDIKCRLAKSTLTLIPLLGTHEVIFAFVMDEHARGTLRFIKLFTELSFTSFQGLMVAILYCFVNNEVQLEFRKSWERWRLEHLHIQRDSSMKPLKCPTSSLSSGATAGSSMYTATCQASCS
assay.protocol: cell-based or functional assay

- binder: "GLP-1 fusion peptide coupled cyclic PYY peptide conjugate SEQ ID NO:248 (Fc fusion, [cyclo-(G2-COCH2-C30), K(AcBr)11, N-Me-R35]-PYY2-36; Br displaced on conjugation to the linker Cys; C-terminal amide; Cys of the second linker peptide thioether-linked to the Lys11 side chain of the cyclic PYY peptide) HGEGTFTSDVSSYLEEQAAKEFIAWLVKGGGASGGGGSGGGGSCPPCPAPEAAGGPSVFLFPPKPKDTLMISRTPEVTCVVVDVSQEDPEVQFNWYVDGVEVHNAKTKPREEQFNSTYRVVSVLTVLHQDWLNGKEYKCKVSNKGLPSSIEKTISKAKGQPREPQVYTLPPSQEEMTKNQVSLTCLVKGFYPSDIAVEWESNGQPENNYKTTPPVLDSDGSFFLYSRLTVDKSRWQEGNVFSCSVMHEALHNHYTQKSLSLSLGKASGSAPAPAPEEEPCA peptide: GISPEAPGEKASPEELNRYYASLRHYLNCVTRQRY"
  u: "nM"
  Human GLP1R EC50: 0.264
- binder: "GLP-1 fusion peptide GF41 (SEQ ID NO:153) (Fc fusion) HGEGTFTSDVSSYLEEQAAKEFIAWLVKGGGASGGGGSGGGGSGGGGSGGGGSCPPCPAPEAAGGPSVFLFPPKPKDTLMISRTPEVTCVVVDVSQEDPEVQFNWYVDGVEVHNAKTKPREEQFNSTYRVVSVLTVLHQDWLNGKEYKCKVSNKGLPSSIEKTISKAKGQPREPQVYTLPPSQEEMTKNQVSLTCLVKGFYPSDIAVEWESNGQPENNYKTTPPVLDSDGSFFLYSRLTVDKSRWQEGNVFSCSVMHEALHNHYTQKSLSLSLGKASGSAPAPAPEEEPCA"
  u: "nM"
  Human GLP1R EC50: 0.049
